- assay target: CFTR (Homo sapiens)
- Sequence (P13569 with tags, fused parts or gaps DEL508-508): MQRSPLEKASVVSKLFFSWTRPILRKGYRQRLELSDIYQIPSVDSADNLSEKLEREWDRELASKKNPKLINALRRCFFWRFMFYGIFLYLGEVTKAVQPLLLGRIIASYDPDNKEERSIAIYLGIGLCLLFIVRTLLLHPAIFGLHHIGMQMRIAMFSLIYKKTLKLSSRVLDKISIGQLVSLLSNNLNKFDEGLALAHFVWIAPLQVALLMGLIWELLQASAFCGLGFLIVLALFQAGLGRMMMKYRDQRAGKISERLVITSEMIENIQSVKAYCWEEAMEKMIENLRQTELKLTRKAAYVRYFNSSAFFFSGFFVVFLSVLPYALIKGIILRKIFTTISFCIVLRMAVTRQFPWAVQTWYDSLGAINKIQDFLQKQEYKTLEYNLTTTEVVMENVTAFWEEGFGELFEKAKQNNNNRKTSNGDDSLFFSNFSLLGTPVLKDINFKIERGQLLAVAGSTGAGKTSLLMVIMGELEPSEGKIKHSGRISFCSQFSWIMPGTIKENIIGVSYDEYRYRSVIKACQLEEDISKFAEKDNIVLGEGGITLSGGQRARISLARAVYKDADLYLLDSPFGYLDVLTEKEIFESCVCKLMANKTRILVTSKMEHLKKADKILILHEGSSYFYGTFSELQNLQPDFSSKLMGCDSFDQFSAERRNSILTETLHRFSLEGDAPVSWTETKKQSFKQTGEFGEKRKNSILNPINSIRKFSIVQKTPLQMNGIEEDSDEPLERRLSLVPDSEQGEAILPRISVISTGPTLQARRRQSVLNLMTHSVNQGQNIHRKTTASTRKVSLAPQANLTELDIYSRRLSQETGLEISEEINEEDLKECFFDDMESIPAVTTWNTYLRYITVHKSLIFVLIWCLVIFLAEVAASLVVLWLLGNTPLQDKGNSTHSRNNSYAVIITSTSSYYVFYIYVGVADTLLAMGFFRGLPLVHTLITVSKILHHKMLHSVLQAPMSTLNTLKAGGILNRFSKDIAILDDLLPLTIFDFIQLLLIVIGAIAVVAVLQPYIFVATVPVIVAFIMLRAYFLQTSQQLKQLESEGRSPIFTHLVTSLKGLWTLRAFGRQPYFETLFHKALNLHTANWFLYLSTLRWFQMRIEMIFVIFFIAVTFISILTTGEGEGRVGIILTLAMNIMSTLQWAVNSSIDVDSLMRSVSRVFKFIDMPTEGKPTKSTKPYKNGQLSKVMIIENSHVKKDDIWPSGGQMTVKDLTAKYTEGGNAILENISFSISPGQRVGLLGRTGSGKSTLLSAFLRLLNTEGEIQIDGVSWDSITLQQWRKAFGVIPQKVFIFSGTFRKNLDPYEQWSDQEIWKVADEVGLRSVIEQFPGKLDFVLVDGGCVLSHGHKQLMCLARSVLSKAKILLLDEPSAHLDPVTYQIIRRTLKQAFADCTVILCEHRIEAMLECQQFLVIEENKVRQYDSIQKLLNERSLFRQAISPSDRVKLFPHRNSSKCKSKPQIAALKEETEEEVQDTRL
- assay protocol: Membrane potential dye, Enteroid Assay B
- Type: cell-based
- stated conditions: Table 9
quantity: Ent. B Max Activity (%)

Past entries and their recorded results:
1. Cc1cccc(C)c1-c1cc2nc(n1)NS(=O)(=O)c1cccc(c1)C(=O)N(Cc1ccc(C(F)(F)F)cn1)[C@H](CC(C)(C)C)CO2 [Compound 806]	+++ (+++ is >600%)
2. Cc1cccc(C)c1-c1cc2nc(n1)NS(=O)(=O)c1cccc(c1)C(=O)N(Cc1ncccc1N)[C@H](CC(C)(C)C)CO2 [Compound 390]	+++ (+++ is >600%)
3. Cc1cccc(C)c1-c1cc2nc(n1)NS(=O)(=O)c1cccc(c1)C(=O)N(CCS(C)(=O)=O)[C@H](CC(C)C)CO2 [Compound 388]	+++ (+++ is >600%)
4. Cc1cccc(C)c1-c1cc2nc(n1)NS(=O)(=O)c1cccc(c1)C(=O)N(Cc1ccc3c(c1)NC(=O)C3)[C@H](CC(C)(C)C)CO2 [Compound 799]	+++ (+++ is >600%)
5. Cc1cccc(C)c1-c1cc2nc(n1)NS(=O)(=O)c1cccc(c1)C(=O)N(CCc1ccc(C(C)(C)O)cc1)[C@H](CC(C)(C)C)CO2 [Compound 108]	+++ (+++ is >600%)

What the record says about Cc1cccc(C)c1-c1cc2nc(n1)NS(=O)(=O)c1cccc(c1)C(=O)N(CCCS(C)(=O)=O)[C@H](CC(C)C)CO2 [Compound 389] : Ent. B Max Activity (%) is +++ (+++ is >600%)
